target-entity: cGMP-specific 3',5'-cyclic phosphodiesterase (Homo sapiens, UniProt O76074)
endpoint: IC50 (pM)
Express it in pM; write the number only.

Item CCn1ncc2c3c(NCc4ccc(OC)c(Cl)c4)nnc(NCc4ccncc4)c3cnc21 has what recorded IC50?
100

* * *

List of Ratio values.
run-description: Relative inhibition of PDE1 from bovine heart and PDE5 from human platelets
Just the number, please.

Item CCn1ncc2c3c(NCc4ccc(OC)c(Cl)c4)nnc(N4CCC(O)CC4)c3cnc21 has what recorded Ratio?
5700

Let us move to another entry and its Ratio.
Item CCn1ncc2c(NCc3ccc(OC)c(Cl)c3)c(C(=O)NCc3ccncc3)cnc21 has what recorded Ratio?
6400

* * *

run-description: Relative inhibition of PDE2 from rat kidney and PDE5 from human platelets
List of Ratio values.
Just the number, please.

Item CCn1ncc2c(NCc3ccc(OC)c(Cl)c3)c(C(=O)NCc3ccncc3)cnc21 has what recorded Ratio?
9200

Let us move to another entry and its Ratio.
Item CCn1ncc2c3c(NCc4ccc(OC)c(Cl)c4)nnc(N4CCC(O)CC4)c3cnc21 has what recorded Ratio?
4000

* * *

run-description: Bioavailability in dog (male)
Format: ADME, organism-based, Canis lupus familiaris
test-context: in vivo
endpoint: bioavailability (%)
Express it in %; write the number only.

Item CCn1ncc2c3c(NCc4ccc(OC)c(Cl)c4)nnc(-n4cnc(C(=O)NC)c4)c3cnc21 has what recorded bioavailability?
42

* * *

run-description: Relative inhibition of PDE4 from rat kidney and PDE5 from human platelets
endpoint: Ratio
Just the number, please.

Item CCn1ncc2c3c(NCc4ccc(OC)c(Cl)c4)nnc(N4CCC(C(=O)O)CC4)c3cnc21 has what recorded Ratio?
7500

Item CCn1ncc2c(NCc3ccc(OC)c(Cl)c3)c(C(=O)NCc3ccncc3)cnc21 has what recorded Ratio?
600

Item CCn1ncc2c3c(NCc4ccc(OC)c(Cl)c4)nnc(N4CCC(O)CC4)c3cnc21 has what recorded Ratio?
300

Item CCn1ncc2c3c(NCc4ccc(OC)c(Cl)c4)nnc(NCc4ccncc4)c3cnc21 has what recorded Ratio?
4000

* * *

run-description: Bioavailability in rat (male)
Format: ADME, organism-based
test-context: in vivo
endpoint: bioavailability
# output: number + unit

Item CCn1ncc2c3c(NCc4ccc(OC)c(Cl)c4)nnc(-n4cnc(C(=O)NC)c4)c3cnc21 has what recorded bioavailability?
29%

* * *

run-description: Relative inhibition of PDE6 from bovine retina and PDE5 from human platelets
Decide by Ratio: equal to or exceeding 80 means satisfied, less means not satisfied.

Solved entries:
Is the recorded value of Ratio equal to or greater than 80 for this molecule? CCn1ncc2c(NCc3ccc(OC)c(Cl)c3)c(C(=O)NCc3ccncc3)cnc21
not satisfied

Is the recorded value of Ratio equal to or greater than 80 for this molecule? CCn1ncc2c3c(NCc4ccc(OC)c(Cl)c4)nnc(NCc4ccncc4)c3cnc21
satisfied

Is the recorded value of Ratio equal to or greater than 80 for this molecule? CCn1ncc2c3c(NCc4ccc(OC)c(Cl)c4)nnc(-n4cnc(C(=O)NC)c4)c3cnc21
satisfied

Could you now consider this next molecule?
Is the recorded value of Ratio equal to or greater than 80 for this molecule? CCn1ncc2c3c(NCc4ccc(OC)c(Cl)c4)nnc(N4CCC(C(=O)O)CC4)c3cnc21
not satisfied

* * *

run-description: Relative inhibition of PDE1 from bovine heart and PDE5 from human platelets
endpoint: Ratio

Please review the entries below; each comes with its answer.
Item CCn1ncc2c3c(NCc4ccc(OC)c(Cl)c4)nnc(-n4cnc(C(=O)NC)c4)c3cnc21 has what recorded Ratio?
> 10000

Item CCn1ncc2c3c(NCc4ccc(OC)c(Cl)c4)nnc(NCc4ccncc4)c3cnc21 has what recorded Ratio?
> 10000

Let us move to another entry and its Ratio.
Item CCn1ncc2c3c(NCc4ccc(OC)c(Cl)c4)nnc(N4CCC(C(=O)O)CC4)c3cnc21 has what recorded Ratio?
> 10000

* * *

run-description: Relative inhibition of PDE2 from rat kidney and PDE5 from human platelets
List of Ratio values.

Item CCn1ncc2c3c(NCc4ccc(OC)c(Cl)c4)nnc(-n4cnc(C(=O)NC)c4)c3cnc21 has what recorded Ratio?
> 10000

Item CCn1ncc2c3c(NCc4ccc(OC)c(Cl)c4)nnc(N4CCC(C(=O)O)CC4)c3cnc21 has what recorded Ratio?
> 10000

Item CCn1ncc2c3c(NCc4ccc(OC)c(Cl)c4)nnc(NCc4ccncc4)c3cnc21 has what recorded Ratio?
> 10000
